Data origin, for the record: the supplement of paper PMC10567573

Provide the recorded protein stability index for the entries that follow.
B1: RAD51 (parent)
chain: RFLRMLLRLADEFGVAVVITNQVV

Variants of: B1
Assay: protein stability index of a GFP-peptide fusion (GPS, HEK-293T) (PSI 1-6); higher = more stable;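 note: lentivirally expressed fusions sorted by FACS into six bins by GFP to DsRed ratio, PSI derived from sequencing read proportions per bin multiplied by bin number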
Details: c terminus: a fixed tail appended
Numbers only.

Could I get protein stability index for every one of these entries?
1. N21F
2. D11C
3. F2W
4. V24K
5. L6K
6. F13L
7. N21K

1: 2.06; 2: 2.06; 3: 1.88; 4: 1.45; 5: 1.96; 6: 2.56; 7: 2.3

Could I get protein stability index for every one of these entries?
1. A10N
2. E12L
3. V15P
4. T20K

2.58
2.75
3.13
3.31
